target.under.test: NDM-1 (Klebsiella pneumoniae)
Sequence (C7C422 29-270, looked up, species assumed): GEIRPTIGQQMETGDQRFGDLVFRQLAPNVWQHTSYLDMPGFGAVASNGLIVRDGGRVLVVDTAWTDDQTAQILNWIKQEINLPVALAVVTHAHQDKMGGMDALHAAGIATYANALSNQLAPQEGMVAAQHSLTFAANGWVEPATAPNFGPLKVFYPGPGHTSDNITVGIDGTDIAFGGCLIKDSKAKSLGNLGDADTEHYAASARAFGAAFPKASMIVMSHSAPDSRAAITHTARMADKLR
test.summary: Enzyme activity: determination of IC50, fluorescence assay with CCF2-FA substrate
Assay type: biochemical
condition.label: enzyme 1 pM, CCF2-FA 1.25 μM, 2 hours at 25° C.; read-out: NDM1 IC50

# compound, IC50
measured = [
    ("O=C(O)[C@@H](CC(F)F)[C@H](Cc1ccccc1)c1nnn[nH]1 [Example 22]", "280 nM"),
    ("CCC[C@H](C(=O)O)[C@H](Cc1ccc(NCC2CCCN2CC)cc1)c1nn[nH]n1 (stereo partly shown) [Example 215]", "170 nM"),
    ("Cc1ccc(C[C@H](c2nn[nH]n2)[C@H](CC(C)C)C(=O)O)cc1 [Example 53]", "37 nM"),
    ("CCC[C@H](C(=O)O)[C@H](Cc1ccc(-c2ccc(CN)cc2)cc1)c1nn[nH]n1 [Example 209]", "84 nM"),
]
